method.notes: Pharmacokinetic study in rats after a single intravenous administration of concentrated Kudiezi injection (HPLC-MS/MS of plasma)
Type: in vivo, Sprague-Dawley rats
test.parameters: male, Sprague-Dawley, rat, plasma, iv, 3.6 mL/kg, single i.v. 3.6 mL/kg of 15 times concentrated KI, mean ± SD, n = 5, read-out: Vd
For each record, write down the corresponding Vd.
Please give the number followed by its unit.

Quick note, Vd for O=C(O)[C@H]1O[C@@H](Oc2cc(O)c3c(=O)cc(-c4ccc(O)c(O)c4)oc3c2)[C@H](O)[C@@H](O)[C@@H]1O [VII, luteolin-7-O-β-D-glucuronide] landed at 5.3 L/kg

Quick note, Vd for O=C(/C=C/c1ccc(O)c(O)c1)O[C@H]1[C@H](O)C[C@](O)(C(=O)O)C[C@H]1O landed at 7.03 L/kg

Quick note, Vd for O=C(/C=C/c1ccc(O)c(O)c1)O[C@@H](C(=O)O)[C@@H](O)C(=O)O landed at 22.1 L/kg

Quick note, Vd for O=C(O)/C=C/c1ccc(O)c(O)c1 landed at 17.9 L/kg

###

method.notes: Pharmacokinetic study in rats after a single intravenous administration of concentrated Kudiezi injection (HPLC-MS/MS of plasma)
Type: in vivo, Sprague-Dawley rats
test.parameters: male, Sprague-Dawley, rat, plasma, iv, 3.6 mL/kg, single i.v. 3.6 mL/kg of 15 times concentrated KI, mean ± SD, n = 5
observed.property: half-life (h)
Report only the number, with the unit h understood.

Quick note, half-life for O=c1cc(-c2ccc(O)c(O)c2)oc2cc(O[C@@H]3O[C@H](CO[C@@H]4O[C@H](CO)[C@@H](O)[C@H](O)[C@H]4O)[C@@H](O)[C@H](O)[C@H]3O)cc(O)c12 [Compound VI, luteolin-7-O-β-D-gentiobioside] landed at 0.23

Quick note, half-life for O=C(/C=C/c1ccc(O)c(O)c1)O[C@@H](C(=O)O)[C@@H](O)C(=O)O landed at 3.93

Quick note, half-life for O=C(/C=C/c1ccc(O)c(O)c1)O[C@@H]1C[C@](O)(C(=O)O)C[C@@H](O)[C@H]1O landed at 2.22

###

For each record, write down the corresponding half-life.
method.notes: Pharmacokinetic study in rats after a single intravenous administration of concentrated Kudiezi injection (HPLC-MS/MS of plasma)
Format: in vivo, Sprague-Dawley rats
test.parameters: male, Sprague-Dawley, rat, plasma, iv, 3.6 mL/kg, single i.v. 3.6 mL/kg of 15 times concentrated KI, mean ± SD, n = 5
Report only the number, with the unit min understood.

Quick note, half-life for O=c1cc(-c2ccc(O)c(O)c2)oc2cc(O[C@@H]3O[C@H](CO)[C@@H](O)[C@H](O)[C@H]3O)cc(O)c12 [VIII, luteolin-7-O-β-D-glucoside] landed at 7.8

Quick note, half-life for O=C(O)[C@H]1O[C@@H](Oc2cc(O)c3c(=O)cc(-c4ccc(O)c(O)c4)oc3c2)[C@H](O)[C@@H](O)[C@@H]1O [VII, luteolin-7-O-β-D-glucuronide] landed at 39.6

Quick note, half-life for O=C(O)/C=C/c1ccc(O)c(O)c1 landed at 365

Quick note, half-life for O=C(/C=C/c1ccc(O)c(O)c1)O[C@H]1[C@H](O)C[C@](O)(C(=O)O)C[C@H]1O landed at 175

Quick note, half-life for O=C(O)[C@H]1O[C@@H](Oc2cc(O)c3c(=O)cc(-c4ccc(O)cc4)oc3c2)[C@H](O)[C@@H](O)[C@@H]1O [IX, apigenin-7-O-β-D-glucuronide] landed at 4.2

These entries and their values trace back to paper PMC6337671.
